The origin of these recorded values is the NIST ThermoML archive (doi:10.1016/j.tca.2005.08.034).

- particulars: 298.15 K, Drop volume

{"compound": "Clc1ccccc1", "unit abbreviation": "mN/m", "surface tension liquid-gas": 33}
{"compound": "CC1CCCO1 (centres undefined) [2-methyltetrahydrofuran]", "unit abbreviation": "mN/m", "surface tension liquid-gas": 24.68}
{"compound": "Fc1ccccc1", "unit abbreviation": "mN/m", "surface tension liquid-gas": 27.43}
{"compound": "c1ccccc1", "unit abbreviation": "mN/m", "surface tension liquid-gas": 28.57}

---

// values below are reported mass density
- particulars: 298.15 K; 101.33 kPa; Liquid; Vibrating tube method

{"compound": "Clc1ccccc1", "mass density [kg/m3]": 1100.94}
{"compound": "Fc1ccccc1", "mass density [kg/m3]": 1018.79}
{"compound": "c1ccccc1", "mass density [kg/m3]": 873.39}
{"compound": "CC1CCCO1 (centres undefined) [2-methyltetrahydrofuran]", "mass density [kg/m3]": 849.2}

---

- protocol text: refractive index (Na D-line) (dimensionless)
- particulars: 298.15 K; 101.33 kPa; Liquid; refractometer
Numbers after ± are expanded uncertainties.
observed property: refractive index

{"compound": "Clc1ccccc1", "data value": "1.52176 ± 0.00013"}
{"compound": "Fc1ccccc1", "data value": "1.4629 ± 0.00022"}
{"compound": "c1ccccc1", "data value": "1.49774 ± 9e-05"}
{"compound": "CC1CCCO1 (centres undefined) [2-methyltetrahydrofuran]", "data value": "1.40287 ± 0.00022"}

---

- particulars: 298.15 K; 101.33 kPa; Liquid

{"compound": "Clc1ccccc1 [chlorobenzene]", "unit abbreviation": "m/s", "speed of sound": 1267.9}
{"compound": "c1ccccc1 [benzene]", "unit abbreviation": "m/s", "speed of sound": 1299.2}
{"compound": "Fc1ccccc1 [fluorobenzene]", "unit abbreviation": "m/s", "speed of sound": 1166}
{"compound": "CC1CCCO1 (centres undefined) [2-methyltetrahydrofuran]", "unit abbreviation": "m/s", "speed of sound": 1202.8}
